Molecular target: Cathepsin L (Homo sapiens (Human))
Assay: Cathepsin L inhibition assay
Assay type: biochemical
Conditions: Table 3; read-out: IC50 (nM) CatL
MEASUREMENT KIND: IC50

### Prompt What value of measured IC50 is listed for NCCCCC(NC(=O)C1CCCC1)C(=O)COc1cccc(F)c1 (stereo not drawn) ?
### Response 5530 nM

### Prompt NCCCC[C@H](NC(=O)C1CCCC1)C(=O)COc1c(F)c(F)cc(F)c1F (stereo in doubt) [Compound 73, reference compound] ?
### Response 700 nM

### Prompt NCCCCC(NC(=O)C1CCCC1)C(=O)COc1c(F)cccc1F (stereo not drawn) ?
### Response > 100000 nM

### Prompt NCCCCC(NC(=O)C1CCCC1)C(=O)COc1cc(F)ccc1F (stereo not drawn) ?
### Response > 100000 nM

### Prompt NCCCCC(NC(=O)C1CCCC1)C(=O)COc1cccc(F)c1F (stereo not drawn) ?
### Response > 100000 nM

### Prompt NCCCCC(NC(=O)C1CCCC1)C(=O)COc1cc(F)cc(F)c1F (stereo not drawn) ?
### Response > 100000 nM

Others:
### Prompt What value of measured IC50 is listed for NCCCCC(NC(=O)C1CCCC1)C(=O)COc1cc(F)cc(F)c1 (stereo not drawn) ?
### Response > 100000 nM

### Prompt NCCCC[C@H](NC(=O)C1CCCC1)C(=O)COc1c(F)ccc(F)c1F (racemic) [1a - non-racemic] ?
### Response 4680 nM

### Prompt NCCCCC(NC(=O)C1CCCC1)C(=O)COc1ccccc1F (stereo not drawn) ?
### Response > 100000 nM

----------
Biological target: Cathepsin K (Homo sapiens (Human))
Experiment: Cathepsin K inhibition assay
Type: biochemical
Conditions: Table 4; read-out: IC50 (nM) CatK
Parameter IC50: see the listing below.

### Prompt What value of measured IC50 is listed for COC(C)(C)C(=O)NC(CCCCN)C(=O)COC(C(F)(F)F)C(F)(F)F (stereo not shown) [Compound 69a] ?
### Response > 10000 nM

### Prompt NCCCC[C@H](NC(=O)C1CCCC1)C(=O)COc1c(F)c(F)cc(F)c1F (stereo in doubt) [Compound 73, reference compound] ?
### Response 20 nM

### Prompt NCCCC[C@H](NC(=O)C1CCCC1)C(=O)COc1c(F)ccc(F)c1F [Compound 1] ?
### Response 117 nM

### Prompt NCCCCC(NC(=O)C1CCCC1)C(=O)COC(C(F)(F)F)C(F)(F)F (stereo not shown) [Compound 18a] ?
### Response > 10000 nM

----------
Target: lysine gingipain (Kgp) (Porphyromonas gingivalis (Bacteroides gingivalis), UniProt P72194)
Experiment: biochemical
Assay type: biochemical
Details: IC50 (nM) Kgp, Table 4
MEASUREMENT KIND: IC50 (nM)
Answer format: numeric, nM implied, no suffix.

### Prompt What value of measured IC50 is listed for NCCCCC(NC(=O)c1ccc(F)cc1)C(=O)COc1c(F)cccc1F (centres unmarked) [Compound 35a] ?
### Response 0.1

### Prompt NCCCCC(NC(=O)c1cccnc1)C(=O)COc1c(F)cccc1F (centres unmarked) [Compound 43a] ?
### Response 0.09

### Prompt NCCCCC(NC(=O)c1cccnc1Br)C(=O)COc1c(F)cccc1F (centres unmarked) [Compound 34a] ?
### Response 0.13

Others:
### Prompt What value of measured IC50 is listed for COC(C)(C)C(=O)NC(CCCCN)C(=O)COc1c(F)ccc(F)c1F (centres unmarked) [Compound 47a] ?
### Response 0.06

### Prompt CN(C)c1ccc(C(=O)NC(CCCCN)C(=O)COc2ccon2)cn1 (centres unmarked) [Compound 62a] ?
### Response 0.14

### Prompt NCCCCC(NC(=O)c1ccc(F)nc1)C(=O)COc1ccon1 (centres unmarked) [Compound 55a] ?
### Response 0.12

### Prompt COC(C)(C)C(=O)NC(CCCCN)C(=O)COc1cnc(C)nc1 (centres unmarked) [Compound 65a] ?
### Response 0.16

# credit: patent US10730826B2
